Target: T1, recombinant human domain 1-3His6 of the cation-independent mannose-6-phosphate receptor (human, UniProt P11717 41-467)
T1 construct: Biotinylated (NHS-PEG4-biotin) for BLI; Glycosylated; also called hDom1-3His6; hCI-M6PRD1-D3
Test: BLI exp 2, dissoc pH 7
quantity_kind: kon
Kindly report the value followed by its unit.

- binder: "anti-CI-M6PR VHH2 (VHH, His6-tagged; made in Pichia pastoris) VHH: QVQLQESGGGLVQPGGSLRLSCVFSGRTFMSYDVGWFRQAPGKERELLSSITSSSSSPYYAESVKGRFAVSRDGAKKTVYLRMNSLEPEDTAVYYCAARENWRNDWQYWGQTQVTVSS"
  reported_value: "1.56e+06 M⁻¹ s⁻¹"

Entry anti-CI-M6PR VHH9 (VHH, His6-tagged; made in Pichia pastoris) VHH: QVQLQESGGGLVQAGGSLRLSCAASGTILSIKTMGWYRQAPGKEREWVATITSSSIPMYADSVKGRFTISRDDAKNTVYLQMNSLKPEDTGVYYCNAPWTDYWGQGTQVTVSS ; kon = 379000 M⁻¹ s⁻¹

Quick note, kon for anti-CI-M6PR VHH10 (VHH, His6-tagged; made in Pichia pastoris) VHH: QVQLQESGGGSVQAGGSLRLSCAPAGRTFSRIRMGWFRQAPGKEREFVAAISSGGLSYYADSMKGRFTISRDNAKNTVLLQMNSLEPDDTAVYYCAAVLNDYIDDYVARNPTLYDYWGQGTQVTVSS landed at 99300 M⁻¹ s⁻¹
